Measured values drawn from the OPERA property sets (Mansouri et al. 2018) for this set.

[
  {
    "compound": "CCN1CCCC1CNC(=O)c1cc(S(=O)(=O)CC)ccc1OC (configuration not stated)",
    "logP": 1.06
  },
  {
    "compound": "CNC(=O)Nc1c(OCCN2CCCC2)c(OC)c2occc2c1OC",
    "logP": 1.38
  },
  {
    "compound": "CCN1CCCC1CNC(=O)c1cc(S(=O)(=O)CC)c(N)cc1OC (configuration not stated)",
    "logP": 1.1
  },
  {
    "compound": "CC(C)(C)c1cc(C(O)CCC2CCNCC2)c2ccccc2n1 (configuration not stated)",
    "logP": 3.63
  },
  {
    "compound": "O=C(NCC1CCCCN1)c1cc(OCC(F)(F)F)ccc1OCC(F)(F)F (configuration not stated)",
    "logP": 3.78
  },
  {
    "compound": "C=CCN1CCCC1CNC(=O)c1cc2nn[nH]c2cc1OC (configuration not stated)",
    "logP": 1.79
  },
  {
    "compound": "CN1CCN(CCCN2c3ccccc3Sc3ccccc32)CC1",
    "logP": 4
  },
  {
    "compound": "CC(=O)Oc1c(C)cc(OCC(O)CNC(C)C)c(C)c1C (configuration not stated)",
    "logP": 2.66
  },
  {
    "compound": "CC(C)(C)NCC(O)COc1ccccc1C#N (configuration not stated)",
    "logP": 1.6
  },
  {
    "compound": "C=CCN1CCCC1CNC(=O)c1cc(S(N)(=O)=O)cc(OC)c1OC (configuration not stated)",
    "logP": 1.47
  },
  {
    "compound": "CC(C)NCC(O)COc1cccc2c1N(C(=O)c1cccnc1)CCC2 (configuration not stated)",
    "logP": 1.63
  },
  {
    "compound": "CC(C)NCCCC1(C(N)=O)c2ccccc2-c2ccccc21",
    "logP": 3.11
  }
]
